tested_target: purified catalytic domain of recombinant human TACE (rhTACEc) (Homo sapiens, UniProt P78536, N452Q/S266A)
Construct: 6xHis (C); made in house; host or cells: baculovirus/Hi5 insect cells
Sequence (P78536 215-477 S266A/N452Q): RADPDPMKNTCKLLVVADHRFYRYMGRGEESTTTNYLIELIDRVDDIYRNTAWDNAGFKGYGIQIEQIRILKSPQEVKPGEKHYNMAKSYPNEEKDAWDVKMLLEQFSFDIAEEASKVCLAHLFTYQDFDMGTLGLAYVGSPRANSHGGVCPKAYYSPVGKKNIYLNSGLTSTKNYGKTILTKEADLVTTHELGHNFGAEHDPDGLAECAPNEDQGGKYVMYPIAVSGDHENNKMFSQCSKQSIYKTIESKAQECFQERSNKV
procedure_details: TACE kinetic assay: cleavage of internally quenched peptide substrate TNF-FRET 2 (Ki)
Type: biochemical
stated_conditions: TNF-FRET 2 substrate, read-out: Ki
pKi: −log10 of the molar value.
test_readout: pKi

The examples below pair each entry with its known result.
COc1ccc2c(c1)C(=O)N(C[C@@]1(c3cc4c(N5CCNC5=O)nccc4o3)NC(=O)NC1=O)C2 = 8.88
COc1ccc2c(c1)C(=O)N(C[C@@]1(c3cc4nc(NC(=O)[C@@H](C)O)ccc4o3)NC(=O)NC1=O)C2 = 9.44
COc1ccc2c(c1)C(=O)N(C[C@@]1(c3cc4c(o3)CCN(C(=O)Nc3cccnc3)C4)NC(=O)NC1=O)C2 = 6.15
COc1ccc2c(c1)C(=O)N(CC1([C@H]3C[C@@H](c4ccccc4)C3)NC(=O)NC1=O)C2 (stereo partly shown) = 7.58
COc1ccc2c(c1F)C(=O)N(C[C@@]1(c3cc4nc(N5CC[C@@H](O)C5)ccc4o3)NC(=O)NC1=O)C2 = 9.52

(a) COC(=O)c1cnc2cc([C@]3(CN4Cc5ccc(OC)cc5C4=O)NC(=O)NC3=O)oc2c1 [Compound 2458]
(b) COc1ccc2c(c1F)C(=O)N(C[C@]1(c3ccco3)NC(=O)NC1=O)C2
(c) COc1ccc2c(c1)C(=O)N(C[C@@]1(c3cc4nc(N(CCO)Cc5ccccn5)ccc4o3)NC(=O)NC1=O)C2
(d) COc1ccc2c(c1)C(=O)N(C[C@@]1(c3cc4c(s3)CCN(C)C4)NC(=O)NC1=O)C2
(e) COc1ccc2c(c1)C(=O)N(C[C@@]1(c3cc4nc(N5CC[C@H](O)C5=O)ccc4o3)NC(=O)NC1=O)C2
[in] Ascending by pKi, please. The reply should contain the labels ordered as requested.
[out] b, d, c, e, a

(1) COc1ccc2c(c1)C(=O)N(C[C@@]1(c3cc4nc(-n5ccnc5)ccc4o3)NC(=O)NC1=O)C2
(2) COc1ccc2c(c1)C(=O)N(C[C@@]1(c3cc4cnc(OC)cc4o3)NC(=O)NC1=O)C2
(3) COc1ccc2c(c1F)C(=O)N(C[C@@]1(c3cc4cc(C5(C)NC(=O)NC5=O)c(F)cc4o3)NC(=O)NC1=O)C2 (stereo partly shown)
(4) COc1ccc2c(c1)C(=O)N(C[C@@]1(c3cc4c(o3)CCN(C(=O)N(C)C)C4)NC(=O)NC1=O)C2
(5) COc1ccc2c(c1)C(=O)N(C[C@@]1(c3cc4c(o3)CCN(C)C4)NC(=O)NC1=O)C2
[in] Place the items in sequence of falling pKi. Please list each label once, in the requested order.
[out] 2, 1, 3, 4, 5

(1) COc1ccc2c(c1)C(=O)N(C[C@@]1(c3cc4cc(-c5ccc(N)nc5)ccc4o3)NC(=O)NC1=O)C2
(2) COc1ccc2c(c1)C(=O)N(C[C@@]1(c3cc4cc(-c5ccncc5)ncc4o3)NC(=O)NC1=O)C2
(3) COc1ccc2c(c1)C(=O)N(C[C@@]1(c3cc4ccccc4o3)NC(=O)NC1=O)C2
(4) COc1ccc2c(c1F)C(=O)N(C[C@@]1(c3cc4nc(Nc5ccc(-c6cn[nH]c6)cn5)ccc4o3)NC(=O)NC1=O)C2
[in] Please produce an ascending ranking of these compounds based on pKi. Answer by naming the labels in the order asked.
[out] 4, 2, 1, 3

(1) COc1ccc2c(c1)C(=O)N(C[C@@]1(c3cc4nc(C(=O)NC5CCN(C)CC5)ccc4o3)NC(=O)NC1=O)C2
(2) COc1ccc2c(c1)C(=O)N(C[C@@]1(c3cc4ccc(C(=O)NC[C@@H](C)O)cc4o3)NC(=O)NC1=O)C2
(3) COc1ccc2c(c1F)C(=O)N(C[C@@]1(c3cc4ccncc4o3)NC(=O)NC1=O)C2
[in] Rank the 3 compounds: largest pKi first, smallest last. List the labels according to the requested ordering.
[out] 3, 2, 1
(3: 9.52, 2: 9.25, 1: 8.88)
